# Protocol Summary: Solubility determination in water, semi-quantitative
# Assay type: physicochemical
# Experimental Parameters: 25° C., semi-quantitative, read-out: Solubility in water (threshold)
Outcome Measure: solubility

IN: Which solubility value is on record for COC(=O)C[C@](O)(CCCC(C)(C)O)C(=O)O[C@@H]1C(OC)=C[C@]23CCCN2CCc2cc4c(cc2[C@H]13)OCO4 ?
OUT: < 100 mg/mL

---

# Protocol Summary: Solubility determination in water, semi-quantitative
# Type: physicochemical
# Experimental Parameters: 25 °C
Outcome Measure: solubility

IN: Which solubility value is on record for COC(=O)C[C@@](O)(CCCC(C)(C)O)C(=O)O[C@@H]1C(OC)=C[C@]23CCCN2CCc2cc4c(cc2[C@H]13)OCO4.O=C(O)C[C@H](O)C(=O)O [Example 3, HOMOHARRINGTONINE HYDROGEN (2S)-MALATE] ?
OUT: > 60 mg/mL
